Test system: BJ, B16-F10, T47D, T47Dp53 and HeLa cells
Test: Cell cycle assay (propidium iodide flow cytometry), cell line panel
Assay type: cell-based
Conditions: 150 nM oligomeric compound, 4.5 μg/ml LIPOFECTIN, after 72 hours, propidium iodide flow cytometry
In the oligonucleotide strings, read from the 5' end, every base follows the letter of its sugar. An asterisk marks phosphorothioate; unmarked linkages are phosphodiester. Other units and linkages are bracketed, terminal groups are in braces. A string of capitals states the bases alone. e = 2'-O-(2-methoxyethyl) (MOE); [5mC] = 5-methylcytosine
// aneuploid (percentage of cells) lookup, one value per entry
Express the result in % but write the number alone.

* 327902 (antisense eG*eG*e[5mC]*eT*eG*eT*e[5mC]*eA*eA*eT*eT*e[5mC]*eA*eT*eA*eG*eG*eT*e[5mC]*eA*eG) [compound 327902] | 13.4
* 327889 (antisense eG*eT*eG*eG*eT*eA*eA*eT*e[5mC]*e[5mC]*e[5mC]*eT*eG*eG*e[5mC]*eA*eA*eT*eG*eT*eG*eA*eT) [compound 327889] | 10.5
* 327901 (antisense eT*eG*eA*eG*e[5mC]*eT*eA*e[5mC]*eA*eG*eT*eG*e[5mC]*eT*eT*e[5mC]*eA*eT*e[5mC]*eT*e[5mC]*eA) [compound 327901] | 13.6
* 327909 (antisense e[5mC]*e[5mC]*e[5mC]*eA*eA*e[5mC]*eA*eA*e[5mC]*eA*eT*eG*eA*eA*eA*e[5mC]*eT*eA*e[5mC]*e[5mC]*eT*eA) [compound 327909] | 16.3

Read the next record carefully.
Short answer for 327928 (antisense eA*eA*e[5mC]*e[5mC]*eG*eA*eT*eT*eT*e[5mC]*eA*eG*eA*eT*eG*eG*eT*eG*e[5mC]*eT*eA*eG) [compound 327928] : aneuploid (percentage of cells) was 15.9

* * *

Test system: HSL
Assay: HSL mRNA expression in adipocytes (real-time PCR)
Format: cell-based, human
Conditions: Table 18; differentiating adipocytes; control = treatment with ISIS 342673
In the oligonucleotide strings, read from the 5' end, every base follows the letter of its sugar. An asterisk marks phosphorothioate; unmarked linkages are phosphodiester. Other units and linkages are bracketed, terminal groups are in braces. A string of capitals states the bases alone. e = 2'-O-(2-methoxyethyl) (MOE); [5mC] = 5-methylcytosine; d = 2'-deoxy (DNA)
measure_name: HSL mRNA

Check out these entries, answers already filled in.
* 328103 (antisense e[5mC]*e[5mC]*e[5mC]*eA*eA*eT*eA*eT*e[5mC]*eA*eA*eA*e[5mC]*eA*eT*eA*eT*e[5mC]*eA) [compound 328103] | 82.5 percentage of control
* 341804 (antisense ATCTGCACTGTCAGCACTTT; all 2'-MOE, all phosphorothioate, methylation of C not given here) [compound 341804] | 71.6 percentage of control
* 341803 (antisense CCACACACTTCCTTACATTCCA; all 2'-MOE, all phosphorothioate, methylation of C not given here) [compound 341803] | 75.5 percentage of control
* 341807 (antisense CTGGGACTTTGTAGGCCAGTT; all 2'-MOE, all phosphorothioate, methylation of C not given here) [compound 341807] | 96.8 percentage of control

Value of measured HSL mRNA for the entry 105990 (antisense AGCAAAAGATCAATCCGTTA; sugars from the 5' end e5 d10 e5, backbone and methylation of C not given here) [compound 105990] : 52.0 percentage of control

* * *

Tested on: adipocytes
Assay: Triglyceride accumulation assay in adipocytes
Type: cell-based, human
Details: differentiating adipocytes transfected with oligomeric compound; Table 75
In the oligonucleotide strings, read from the 5' end, every base follows the letter of its sugar. An asterisk marks phosphorothioate; unmarked linkages are phosphodiester. Other units and linkages are bracketed, terminal groups are in braces. A string of capitals states the bases alone. e = 2'-O-(2-methoxyethyl) (MOE); [5mC] = 5-methylcytosine
measure_name: TG (triglyceride accumulation)

Looking up 344343 (AUGCCCUUUCAUCAUUGCACUG; anti-miR; all 2'-MOE, all phosphorothioate, methylation of C and T or U not given here) [compound 344343] , I see its TG (triglyceride accumulation) listed as 32 percentage of untreated control (UTC)

Looking up 327929 (antisense eG*eA*eA*e[5mC]*eA*eG*eA*eT*eA*eG*eT*e[5mC]*eT*eA*eA*eA*e[5mC]*eA*e[5mC]*eT*eG*eG*eG) [compound 327929] , I see its TG (triglyceride accumulation) listed as 65 percentage of untreated control (UTC)

Note to self: TG (triglyceride accumulation) recorded for 346692 (UAAACGGAACCACUAGUGACUUG; all 2'-MOE, all phosphorothioate, methylation of C and T or U not given here) [compound 346692] was 35 percentage of untreated control (UTC)

The substance identified as 344342 (AUGCUUUUUGGGGUAAGGGCUU; anti-miR; all 2'-MOE, all phosphorothioate, methylation of C and T or U not given here) [compound 344342] registered its TG (triglyceride accumulation) at 88 percentage of untreated control (UTC)

* * *

Test system: aP2
Test: aP2 mRNA expression in adipocytes (real-time PCR)
Assay type: cell-based, human
Settings: adipocytes, 250 nM oligomeric compound, day nine post-transfection, relative to control (1.0); Table 15
In the oligonucleotide strings, read from the 5' end, every base follows the letter of its sugar. An asterisk marks phosphorothioate; unmarked linkages are phosphodiester. Other units and linkages are bracketed, terminal groups are in braces. A string of capitals states the bases alone. e = 2'-O-(2-methoxyethyl) (MOE); [5mC] = 5-methylcytosine
A collection of substances and their measured AP2 (mRNA expression)
Number only, please.

Some solved cases for reference:
• 327941 (antisense eA*eA*e[5mC]*e[5mC]*e[5mC]*eA*e[5mC]*e[5mC]*eG*eA*e[5mC]*eA*eG*e[5mC]*eA*eA*eT*eG*eA*eA*eT*eG*eT*eT) [compound 327941] = 1.78
• 327933 (antisense eA*eA*eG*eG*eG*eA*eT*eT*e[5mC]*e[5mC]*eT*eG*eG*eG*eA*eA*eA*eA*e[5mC]*eT*eG*eG*eA*e[5mC]) [compound 327933] = 1.46
• 327925 (antisense eT*eA*eG*e[5mC]*eT*eG*eG*eT*eT*eG*eA*eA*eG*eG*eG*eG*eA*e[5mC]*e[5mC]*eA*eA) [compound 327925] = 0.77
• 327934 (antisense eG*eG*eT*eA*e[5mC]*eA*eA*eT*e[5mC]*eA*eA*e[5mC]*eG*eG*eT*e[5mC]*eG*eA*eT*eG*eG*eT) [compound 327934] = 1.20
• 327876 (antisense eA*eA*e[5mC]*eA*e[5mC]*eT*eG*eA*eT*eT*eT*e[5mC]*eA*eA*eA*eT*eG*eG*eT*eG*e[5mC]*eT*eA) [compound 327876] = 0.75

327903 (antisense eA*eA*e[5mC]*eT*eA*eT*eA*e[5mC]*eA*eA*e[5mC]*e[5mC]*eT*eA*e[5mC]*eT*eA*e[5mC]*e[5mC]*eT*e[5mC]*eA) [compound 327903] has a reported AP2 (mRNA expression) of 1.15

* * *

Tested on: HeLa cells
Experiment: Cell cycle assay in HeLa cells
Assay type: cell-based, human
Settings: HeLa cells, 150 nM oligomeric compound, 48 hours after treatment; relative to untreated control (UTC=100)
In the oligonucleotide strings, read from the 5' end, every base follows the letter of its sugar. An asterisk marks phosphorothioate; unmarked linkages are phosphodiester. Other units and linkages are bracketed, terminal groups are in braces. A string of capitals states the bases alone. e = 2'-O-(2-methoxyethyl) (MOE); [5mC] = 5-methylcytosine; d = 2'-deoxy (DNA)
Outcome: 1.0 for % cells in cell cycle phase: G1 of at least 80%; 0.0 for anything lower.

- 328644 (eG*eA*e[5mC]*eA*eA*dG*dG*dT*dG*dG*dG*dA*dG*d[5mC]*dG*eA*eG*eT*eG*eG; antisense) [compound 328644]: 1.0
- 328744 (antisense e[5mC]*eG*eG*eA*eT*d[5mC]*d[5mC]*dT*dG*dT*dT*dA*d[5mC]*d[5mC]*dT*e[5mC]*eA*e[5mC]*e[5mC]*eA) [compound 328744]: 0.0
- 338741 (antisense GCTTCACAATTAGACCATCC; all 2'-MOE, all phosphorothioate, methylation of C not given here) [compound 338741]: 1.0
- 341788 (antisense AGCCAAGCTCAGACGGATCCGA; all 2'-MOE, all phosphorothioate, methylation of C not given here) [compound 341788]: 0.0
- 328419 (antisense eT*eG*eT*eT*eG*d[5mC]*d[5mC]*dT*dA*dA*d[5mC]*dG*dA*dA*d[5mC]*eA*e[5mC]*eA*eG*eA) [compound 328419]: 1.0
- 328111 (antisense eT*e[5mC]*e[5mC]*eG*eA*eG*eT*e[5mC]*eG*eG*eA*eG*eG*eA*eG*eG*eA*eG*eG*eA*eA) [compound 328111]: 1.0

(Q) hey, is % cells in cell cycle phase: G1 for this one >= 80%? 328674 (eT*eG*e[5mC]*e[5mC]*e[5mC]*dT*dG*d[5mC]*dT*d[5mC]*dA*dG*dA*dG*d[5mC]*e[5mC]*e[5mC]*eT*eA*eG; antisense) [compound 328674]
(A) 0.0
